Where these numbers come from: patent US9586951B2

molecular target: ATM (Homo sapiens, UniProt Q13315); construct: detecting phosphorylation of Chk2 in a human non-small cell lung cancer cell line NCI-H460 (ATCC company); host or cells: NCI-H460 human non-small cell lung cancer cells; assay: ATM inhibition test (phosphorylation of Chk2 generated by ionizing radiation, AlphaScreen SureFire); type: cell-based; settings: phosphorylated Chk2 in NCI-H460 cells, ionizing radiation 8Gy, 1 hour after test compound treatment; read-out: ATM inhibitory activity
Sequence (Q13315 whole entry): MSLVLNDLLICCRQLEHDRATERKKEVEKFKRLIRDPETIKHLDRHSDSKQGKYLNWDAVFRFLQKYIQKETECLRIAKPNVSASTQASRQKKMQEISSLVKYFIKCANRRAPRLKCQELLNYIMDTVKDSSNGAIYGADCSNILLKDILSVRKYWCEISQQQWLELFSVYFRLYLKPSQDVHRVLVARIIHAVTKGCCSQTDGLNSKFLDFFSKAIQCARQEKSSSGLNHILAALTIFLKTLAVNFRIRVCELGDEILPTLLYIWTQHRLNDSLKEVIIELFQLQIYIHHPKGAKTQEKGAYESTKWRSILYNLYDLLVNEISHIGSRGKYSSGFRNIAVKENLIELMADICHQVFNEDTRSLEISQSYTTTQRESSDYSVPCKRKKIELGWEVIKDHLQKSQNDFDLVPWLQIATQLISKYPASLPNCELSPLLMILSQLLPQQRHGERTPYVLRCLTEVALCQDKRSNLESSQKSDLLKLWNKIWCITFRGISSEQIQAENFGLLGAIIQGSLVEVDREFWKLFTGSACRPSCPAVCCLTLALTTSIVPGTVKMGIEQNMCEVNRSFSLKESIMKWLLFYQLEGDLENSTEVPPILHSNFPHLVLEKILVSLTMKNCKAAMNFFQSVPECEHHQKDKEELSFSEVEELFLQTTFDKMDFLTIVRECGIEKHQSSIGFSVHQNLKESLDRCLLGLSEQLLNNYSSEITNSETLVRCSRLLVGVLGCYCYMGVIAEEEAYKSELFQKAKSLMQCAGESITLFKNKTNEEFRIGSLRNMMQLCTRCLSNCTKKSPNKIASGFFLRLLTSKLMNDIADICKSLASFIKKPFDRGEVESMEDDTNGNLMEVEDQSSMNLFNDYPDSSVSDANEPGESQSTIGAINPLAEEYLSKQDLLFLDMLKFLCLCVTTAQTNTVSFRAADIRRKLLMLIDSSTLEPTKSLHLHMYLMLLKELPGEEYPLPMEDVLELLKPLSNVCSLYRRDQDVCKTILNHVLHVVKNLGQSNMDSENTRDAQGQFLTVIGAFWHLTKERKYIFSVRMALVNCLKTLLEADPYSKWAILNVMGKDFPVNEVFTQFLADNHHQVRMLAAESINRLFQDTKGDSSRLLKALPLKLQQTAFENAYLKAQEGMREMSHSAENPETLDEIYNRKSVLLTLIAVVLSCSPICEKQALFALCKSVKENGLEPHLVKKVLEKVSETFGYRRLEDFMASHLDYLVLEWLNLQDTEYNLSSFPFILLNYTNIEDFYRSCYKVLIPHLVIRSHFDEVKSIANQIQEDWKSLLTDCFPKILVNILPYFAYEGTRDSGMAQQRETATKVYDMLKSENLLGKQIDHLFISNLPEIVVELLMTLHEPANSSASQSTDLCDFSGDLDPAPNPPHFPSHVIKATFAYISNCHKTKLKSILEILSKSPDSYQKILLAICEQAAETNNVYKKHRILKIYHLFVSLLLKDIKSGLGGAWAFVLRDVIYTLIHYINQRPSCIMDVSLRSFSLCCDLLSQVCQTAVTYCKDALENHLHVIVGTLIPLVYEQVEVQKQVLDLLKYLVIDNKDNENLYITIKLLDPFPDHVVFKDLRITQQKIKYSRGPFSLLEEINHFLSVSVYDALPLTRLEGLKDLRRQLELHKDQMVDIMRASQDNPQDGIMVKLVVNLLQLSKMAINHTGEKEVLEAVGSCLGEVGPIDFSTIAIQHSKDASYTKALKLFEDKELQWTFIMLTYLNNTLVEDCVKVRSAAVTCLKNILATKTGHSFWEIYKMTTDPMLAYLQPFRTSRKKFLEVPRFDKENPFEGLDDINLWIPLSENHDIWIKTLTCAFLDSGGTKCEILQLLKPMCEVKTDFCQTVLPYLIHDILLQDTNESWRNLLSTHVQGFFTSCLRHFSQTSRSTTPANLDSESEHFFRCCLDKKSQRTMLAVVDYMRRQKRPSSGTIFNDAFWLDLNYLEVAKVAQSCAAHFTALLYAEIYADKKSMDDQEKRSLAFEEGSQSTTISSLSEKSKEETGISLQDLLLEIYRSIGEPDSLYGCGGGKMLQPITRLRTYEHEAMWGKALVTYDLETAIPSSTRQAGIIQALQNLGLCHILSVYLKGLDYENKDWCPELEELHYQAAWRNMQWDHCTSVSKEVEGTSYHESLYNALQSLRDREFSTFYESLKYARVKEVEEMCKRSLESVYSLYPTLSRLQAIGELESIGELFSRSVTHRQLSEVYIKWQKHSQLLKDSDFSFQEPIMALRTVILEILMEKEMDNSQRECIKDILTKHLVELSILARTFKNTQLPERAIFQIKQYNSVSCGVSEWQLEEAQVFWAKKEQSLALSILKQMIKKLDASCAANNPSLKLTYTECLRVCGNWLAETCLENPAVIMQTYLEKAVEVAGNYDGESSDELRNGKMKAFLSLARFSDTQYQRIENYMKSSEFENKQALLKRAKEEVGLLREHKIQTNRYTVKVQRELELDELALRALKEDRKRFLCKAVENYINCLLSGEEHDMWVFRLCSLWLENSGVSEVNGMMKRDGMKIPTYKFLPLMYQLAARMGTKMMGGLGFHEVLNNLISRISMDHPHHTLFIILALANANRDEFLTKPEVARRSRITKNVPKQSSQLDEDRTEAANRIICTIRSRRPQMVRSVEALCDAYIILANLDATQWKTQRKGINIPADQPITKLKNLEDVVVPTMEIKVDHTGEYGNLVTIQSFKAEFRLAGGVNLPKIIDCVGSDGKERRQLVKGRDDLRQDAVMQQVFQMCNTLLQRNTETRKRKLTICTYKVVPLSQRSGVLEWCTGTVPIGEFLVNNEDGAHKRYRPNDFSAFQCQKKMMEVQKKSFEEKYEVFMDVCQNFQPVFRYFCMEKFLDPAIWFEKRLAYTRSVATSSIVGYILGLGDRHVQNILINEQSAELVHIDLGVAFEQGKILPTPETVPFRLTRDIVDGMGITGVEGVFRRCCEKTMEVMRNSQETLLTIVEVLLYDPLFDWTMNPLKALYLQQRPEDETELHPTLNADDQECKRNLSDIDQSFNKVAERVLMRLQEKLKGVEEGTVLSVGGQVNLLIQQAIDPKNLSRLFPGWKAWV
assayReadout: IC50

Look over these answered cases.
compound	IC50
Cc1ccc(C(Nc2ccc3c(c2)Sc2cccc(-c4cc(N5CCOCC5)cc(=O)[nH]4)c2S3)[C@H]2CCN(C)C2)nc1 (single isomer, unassigned) [Example 1-56-14]	< 100 nM
O=c1cc(N2CCOCC2)cc(-c2cccc3c2Sc2ccc(NCc4cc(Cl)ccn4)cc2S3)[nH]1	< 100 nM

Shifting focus to the compound that follows.
Query block: What value of IC50 has been recorded for this entry: Cc1ccncc1CNc1ccc2c(c1)Sc1cccc(-c3cc(N4CCOCC4)cc(=O)[nH]3)c1O2
Result block: 100 to 500 nM

* * *

Quick list: IC50 per entry.
target: ATM (Homo sapiens); construct: detecting phosphorylation of Chk2 in a human non-small cell lung cancer cell line NCI-H460 (ATCC company); host or cells: NCI-H460 human non-small cell lung cancer cells; test: ATM inhibition test (phosphorylation of Chk2 generated by ionizing radiation, AlphaScreen SureFire); assay type: cell-based; settings: phosphorylated Chk2 in NCI-H460 cells, ionizing radiation 8Gy, 1 hour after test compound treatment; read-out: ATM inhibitory activity

// known answers, use as guide
In [3]: df
Out[3]:
                                   molecule  assayreadout          value
0  O=c1cc(N2CCOCC2)cc(-c2cccc3c2Sc2ccc(NC4CCN(C5CC5)CC4)cc2S3)[nH]1 [Example 1-24-18]          IC50       < 0.1 µM
1  CCCCN1CCC(Nc2ccc3c(c2)Cc2cccc(-c4cc(N5CCOCC5)cc(=O)[nH]4)c2O3)CC1 [Example 2-28-33]          IC50  0.1 to 0.5 µM
2  Cc1ccnc(C(CO)Nc2ccc3c(c2)Sc2cccc(-c4cc(N5CCOCC5)cc(=O)[nH]4)c2S3)c1 (single isomer, unassigned) [Example 1-12-138-2]          IC50       < 0.1 µM
3  COc1cnccc1CNc1ccc2c(c1)Sc1cccc(-c3cc(N4CCOCC4)cc(=O)[nH]3)c1O2 [Example 4-4-23]          IC50  0.1 to 0.5 µM
4  Cc1cnc(C(CCN(C)C)Nc2ccc3c(c2)Cc2cccc(-c4cc(=O)cc(N5CCOCC5)o4)c2O3)cn1 (single isomer, unassigned) [Example 12-6]          IC50  0.1 to 0.5 µM

Query block: Entry Cc1cnc(C(C)Nc2ccc3c(c2)Cc2cccc(-c4cc(N5CCOCC5)cc(=O)[nH]4)c2O3)cn1 (single isomer, unassigned) [Example 2-14-90-1] has what IC50?
Result block: 0.5 to 2 µM

* * *

target: ATM (Homo sapiens, UniProt Q13315); construct: detecting phosphorylation of Chk2 in a human non-small cell lung cancer cell line NCI-H460 (ATCC company); host or cells: NCI-H460 human non-small cell lung cancer cells; assay: ATM inhibition test (phosphorylation of Chk2 generated by ionizing radiation, AlphaScreen SureFire); assay type: cell-based; settings: phosphorylated Chk2 in NCI-H460 cells, ionizing radiation 8Gy, 1 hour after test compound treatment; read-out: ATM inhibitory activity
pIC50: −log10 of the molar value.
Listing of entries alongside the reported pIC50.

compound	pIC50
O=c1cc(N2CCOCC2)cc(-c2cccc3c2Oc2ccc(NCc4cscn4)cc2C3)[nH]1	6.30 to 7.00
Cc1ccc(C(Nc2ccc3c(c2)Sc2cccc(-c4cc(N5CCOCC5)cc(=O)[nH]4)c2S3)[C@H]2CCCN2C)nc1 (single isomer, unassigned) [Example 1-56-4]	6.30 to 7.00

With those in mind, consider the next compound.
Query block: What value of pIC50 has been reported for the following compound? COc1cccc(CNc2ccc3c(c2)Cc2cccc(-c4cc(N5CCOCC5)cc(=O)[nH]4)c2O3)n1
Result block: 6.30 to 7.00
